Biological target: human ether-à-go-go-related gene (hERG) potassium channel (human, UniProt Q12809)
Sequence (Q12809 whole entry, looked up): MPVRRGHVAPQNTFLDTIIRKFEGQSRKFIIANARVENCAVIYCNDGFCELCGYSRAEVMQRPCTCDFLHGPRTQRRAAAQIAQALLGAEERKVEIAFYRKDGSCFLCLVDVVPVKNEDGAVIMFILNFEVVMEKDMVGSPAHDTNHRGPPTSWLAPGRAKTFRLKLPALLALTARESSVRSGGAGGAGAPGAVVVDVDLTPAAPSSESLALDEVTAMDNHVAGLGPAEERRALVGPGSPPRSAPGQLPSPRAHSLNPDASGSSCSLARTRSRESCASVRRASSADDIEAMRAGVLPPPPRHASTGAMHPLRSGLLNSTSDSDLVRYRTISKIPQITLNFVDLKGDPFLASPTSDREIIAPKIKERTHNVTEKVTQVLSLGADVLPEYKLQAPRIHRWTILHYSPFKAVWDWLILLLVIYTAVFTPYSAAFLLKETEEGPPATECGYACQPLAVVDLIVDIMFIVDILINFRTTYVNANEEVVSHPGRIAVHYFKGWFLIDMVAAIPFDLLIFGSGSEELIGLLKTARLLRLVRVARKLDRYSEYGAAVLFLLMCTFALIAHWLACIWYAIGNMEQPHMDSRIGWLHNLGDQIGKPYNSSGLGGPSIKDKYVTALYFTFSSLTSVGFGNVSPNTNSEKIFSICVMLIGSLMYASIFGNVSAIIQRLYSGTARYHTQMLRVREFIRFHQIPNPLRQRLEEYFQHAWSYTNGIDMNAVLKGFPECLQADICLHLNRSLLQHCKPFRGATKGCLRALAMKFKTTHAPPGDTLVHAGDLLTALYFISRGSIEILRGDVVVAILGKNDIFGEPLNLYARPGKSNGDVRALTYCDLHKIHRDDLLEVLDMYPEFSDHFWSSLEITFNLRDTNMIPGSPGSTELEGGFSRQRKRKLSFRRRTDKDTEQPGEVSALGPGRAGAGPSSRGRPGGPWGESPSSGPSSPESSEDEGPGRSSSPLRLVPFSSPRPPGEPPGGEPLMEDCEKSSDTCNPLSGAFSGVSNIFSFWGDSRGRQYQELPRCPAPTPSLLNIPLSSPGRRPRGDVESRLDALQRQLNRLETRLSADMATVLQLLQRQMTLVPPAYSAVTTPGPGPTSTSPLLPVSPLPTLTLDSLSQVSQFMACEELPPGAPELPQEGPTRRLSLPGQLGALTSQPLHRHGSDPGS
Assay: primary screen, population patch clamp on CHO cells stably expressing hERG; higher = less effect of the substance
Among all 310,000 compounds or so, about 14,000 (4.5%) showed an effect of 50% or more. The effect is printed as a negative number. For the sample, strong results were picked, then their nearest neighbours and some compounds at random.
Parameter: hERG current change (%, negative = inhibition) at 10uM. Scope: all listed entries.
Express the result in % but write the number alone.

Observe how each entry below is paired with its result.
* OCCC1CN(Cc2ccc(F)cc2)CCN1CCc1ccccc1 (stereo not drawn) | -74.2
* O=C(c1ccc(C(F)(F)F)cc1)C1CCCN(C(=O)CCc2cnccn2)C1 (stereo not drawn) | -15.1
* CC(C)CN1CCN(Cc2ccc(Oc3ncccn3)cc2)CC1CCO (stereo not drawn) | -28.5
* CCCCc1ccc(-n2c(Cc3cccs3)n[nH]c2=S)cc1 | -56.3
* Cn1nccc1C(=O)N1CCCC(C(=O)c2ccc(C(F)(F)F)cc2)C1 (stereo not drawn) | 6.14
* CC(C)Oc1cccc(C(=O)C2CCCN(S(=O)(=O)C(C)C)C2)c1 (stereo not drawn) | -21.7
* COc1ccc(CCNC(=O)c2nnc(CS(=O)(=O)c3ccccc3)o2)cc1OC | -6.44
* OCCC1CN(Cc2ccon2)CCN1CCc1ccccc1 (stereo not drawn) | -19.2
* Cn1c(C(=O)N2CCCC(C(=O)c3ccc(C(F)(F)F)cc3)C2)cc(=O)n(C)c1=O (stereo not drawn) | -71.7
* CC(=O)c1cc(CN2CCN(C3CCCCC3)C(CCO)C2)cs1 (stereo not drawn) | -17.2

Requested read-out hERG current change (%, negative = inhibition) at 10uM, target or system human ether-à-go-go-related gene (hERG) potassium channel (human, UniProt Q12809), entry OCCC1CN(Cc2ccc(F)cc2Cl)CCN1CCc1ccccc1 (stereo not drawn)
-67.4

Requested read-out hERG current change (%, negative = inhibition) at 10uM, target or system human ether-à-go-go-related gene (hERG) potassium channel (human, UniProt Q12809), entry COc1ccc2cc(C(=O)C3CCCN(C(=O)c4cc(=O)n(C)c(=O)n4C)C3)ccc2c1 (stereo not drawn)
-38.4

Requested read-out hERG current change (%, negative = inhibition) at 10uM, target or system human ether-à-go-go-related gene (hERG) potassium channel (human, UniProt Q12809), entry `COc1ccccc1/C=C\C=N\NC(=O)CCn1nnc2ccccc21`
-3.44

Requested read-out hERG current change (%, negative = inhibition) at 10uM, target or system human ether-à-go-go-related gene (hERG) potassium channel (human, UniProt Q12809), entry CCN=C(NCC)SC1CC(=O)N(c2ccc(OC)cc2)C1=O (stereo not drawn)
0.718

Requested read-out hERG current change (%, negative = inhibition) at 10uM, target or system human ether-à-go-go-related gene (hERG) potassium channel (human, UniProt Q12809), entry CCc1nnc(SCC(=O)Nc2ccccc2)n1CC1CCCO1 (stereo not drawn)
2.61

Requested read-out hERG current change (%, negative = inhibition) at 10uM, target or system human ether-à-go-go-related gene (hERG) potassium channel (human, UniProt Q12809), entry `CCCCNC(=O)c1cc2ccccc2s1`
10.8

----------
Biological target: human ether-à-go-go-related gene (hERG) potassium channel (human, UniProt Q12809);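 further: peak tail current of the secondary pulse compared with the same well before compound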
Assay: primary screen, population patch clamp on CHO cells stably expressing hERG; higher = less effect of the substance
About 14,000 (4.5%) of roughly 310,000 compounds showed an effect of 50% or more. Effects have a minus sign here. The list comes from a sample in which strong results are over-represented; it also holds close analogues and randomly drawn compounds.
property measured: hERG current change (%, negative = inhibition) at 10uM (%)
Express the result in % but write the number alone.

Requested read-out: hERG current change (%, negative = inhibition) at 10uM. Entry: C=CCc1ccc(OCC(O)COCC)c(OC)c1 (centres unmarked)
-3.56

Requested read-out: hERG current change (%, negative = inhibition) at 10uM. Entry: C=CCc1ccc(OCC(O)CN2CCN(Cc3ccc(Cl)cc3)CC2)c(OC)c1.Cl (centres unmarked)
-75.7

Requested read-out: hERG current change (%, negative = inhibition) at 10uM. Entry: C=CCc1ccc(OCC(O)CO)c(OC)c1 (centres unmarked)
11.6

Requested read-out: hERG current change (%, negative = inhibition) at 10uM. Entry: C=CCc1ccc(OCC(O)CN2CCN(Cc3ccccc3)CC2)c(OC)c1.Cl (centres unmarked)
-77

Requested read-out: hERG current change (%, negative = inhibition) at 10uM. Entry: `O=C(Nc1ccc(N2CCN(C(=O)c3ccco3)CC2)c(Cl)c1)c1cccnc1`
-16.8

----------
Biological target: human ether-à-go-go-related gene (hERG) potassium channel (human);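 further: peak tail current of the secondary pulse compared with the same well before compound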
Assay: primary screen, population patch clamp on CHO cells stably expressing hERG; higher = less effect of the substance
Among all 310,000 compounds or so, about 14,000 (4.5%) showed an effect of 50% or more. The effect is printed as a negative number. The full list was thinned out, with strong results kept by preference.
Parameter: hERG current change (%, negative = inhibition) at 10uM. Scope: all listed entries.
Express the result in % but write the number alone.

Observe how each entry below is paired with its result.
• O=C(c1ccc(Cl)cc1)N1N=CCC1(O)c1ccc(Cl)cc1 (stereo not drawn) = 15.7
• Cc1ccc(C(=O)n2nc(-c3ccccc3)nc2NCc2ccco2)cc1 = 16
• COC(=O)c1cc(S(=O)(=O)NCC2CCN(CCc3ccc(OC)cc3)CC2)c[nH]1 = -67
• CCN(CC(=O)Nc1ccc(OC)cc1)C(=O)c1ccc2c(=O)n3c(nc2c1)CCC3 = 9.77
• Cc1cccc(C(=O)Nc2c(C(=O)N3CCN(C)CC3)cnn2-c2ccccc2)c1 = -15.9

Requested read-out: hERG current change (%, negative = inhibition) at 10uM. Entry: `Nn1c(SCc2c(F)cccc2F)nnc1-c1ccccn1`
2.69

Requested read-out: hERG current change (%, negative = inhibition) at 10uM. Entry: `O=C(COc1coc(CN2CCN(c3ccc(F)cc3)CC2)cc1=O)NC1CCCC1`
-53.1

Requested read-out: hERG current change (%, negative = inhibition) at 10uM. Entry: `O=C(Nc1c(C(=O)N2CCOCC2)cnn1-c1ccccc1)c1ccc([N+](=O)[O-])cc1`
-16

Requested read-out: hERG current change (%, negative = inhibition) at 10uM. Entry: `Cc1cccc(OCCn2c(NC(=O)c3ccco3)nc3ccccc32)c1`
12.5

Requested read-out: hERG current change (%, negative = inhibition) at 10uM. Entry: `CN1CCN(C(=O)c2cnn(-c3ccccc3)c2NC(=O)c2ccc(Br)cc2)CC1`
-81.4

Requested read-out: hERG current change (%, negative = inhibition) at 10uM. Entry: COc1ccccc1/C=C1\SC(=S)N(CCC(=O)N2CCCCC2CCO)C1=O (stereo not drawn)
16.7

Requested read-out: hERG current change (%, negative = inhibition) at 10uM. Entry: `C=C(C)CNC(=S)NN=C1c2ccccc2-c2ccccc21`
6.79

----------
Target: human ether-à-go-go-related gene (hERG) potassium channel (human, UniProt Q12809);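 further: peak tail current of the secondary pulse compared with the same well before compound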
Assay: primary screen, population patch clamp on CHO cells stably expressing hERG; higher = less effect of the substance
About 14,000 (4.5%) of roughly 310,000 compounds showed an effect of 50% or more. Effects have a minus sign here. The entries come from a sample that favours strong results as a whole.
Parameter: hERG current change (%, negative = inhibition) at 10uM. Scope: all listed entries.
Express the result in % but write the number alone.

• CC(C)Oc1ccc(CN2CCCC(CO)(Cc3ccc(F)cc3)C2)cc1 (stereo not shown) = -58.7
• CC(C)c1ccc(NNC(=O)C2CCC2)cc1 = 3.84

Requested read-out: hERG current change (%, negative = inhibition) at 10uM. Entry: `O=C(Nc1ccccc1N1CCCC1)c1ccc(F)c(S(=O)(=O)N2CCOCC2)c1`
-22.5

Requested read-out: hERG current change (%, negative = inhibition) at 10uM. Entry: COc1ccc(N(C)S(=O)(=O)c2cccc(C(=O)NCC(c3ccco3)N3CCCC3)c2)cc1 (stereo not shown)
-33.9

Requested read-out: hERG current change (%, negative = inhibition) at 10uM. Entry: `O=C(CN1C(=O)NC2(CCCCCCC2)C1=O)Nc1ccc(Br)cc1`
5.19

----------
Biological target: human ether-à-go-go-related gene (hERG) potassium channel (human, UniProt Q12809);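 further: peak tail current of the secondary pulse compared with the same well before compound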
Assay: primary screen, population patch clamp on CHO cells stably expressing hERG; higher = less effect of the substance
Out of some 310,000 compounds screened, about 14,000 (4.5%) showed an effect of 50% or more. Effects have a minus sign here. This is one part of a sample in which strong results are shown more often than they occur.
property measured: hERG current change (%, negative = inhibition) at 10uM (%)
Express the result in % but write the number alone.

Observe how each entry below is paired with its result.
• CC(C(=O)OCC(=O)Nc1cccc(S(=O)(=O)N(C)C)c1)N1C(=O)c2ccccc2C1=O (centres unmarked) = -82.8
• COc1cccc(CNC(=O)C2CCN(S(=O)(=O)c3ccccc3)CC2)c1 = -36
• COc1ccccc1CNC(=O)c1ccccc1OCc1ccc(F)cc1 = -10
• CCOC(=O)c1c(NC(=O)c2cccs2)sc2c1CCCC2 = 15.6
• COC(=O)c1ccc(CN2CCC(CO)(CCOc3ccccc3)CC2)cc1 = -80.1

Requested read-out: hERG current change (%, negative = inhibition) at 10uM. Entry: `COc1ccc(S(=O)(=O)N2CCC(C(=O)NCCC(=O)NCc3cccc(OC)c3)CC2)cc1`
-4.05

Requested read-out: hERG current change (%, negative = inhibition) at 10uM. Entry: CC(O)CNc1nc2c(c(=O)n(Cc3ccc(Cl)c(Cl)c3)c(=O)n2C)n1C (centres unmarked)
-17.3

Requested read-out: hERG current change (%, negative = inhibition) at 10uM. Entry: CSCCC(NC(=O)c1ccco1)C(=O)N(C)CC(=O)Nc1c(Cl)cccc1Cl (centres unmarked)
11.8
